Hey, just so you know, these numbers are from ChEMBL document CHEMBL5321281.

- method summary: AUCt in ICR mouse at 1 mg/kg, iv and measured upto 24 hrs by LC-MS/MS analysis
- Assay type: ADME, organism-based
- Set-up: dose 1 mg/kg, time < 24 hrs, route iv
- settings: in vivo
assay readout: AUC(0-t) at 24 h
Answer shape: numeric part, then the unit.

# lookup: AUC(0-t) at 24 h of C=C(CCC=C(C)C)[C@H]1CC[C@]2(C)[C@@H]1[C@H](O)C[C@@H]1[C@@]3(C)Cc4cnc(C)nc4C(C)(C)[C@@H]3CC[C@]12C
1170 ng·h/mL

###

- Tested on: BMMC
- method summary: Anti-osteoclastogenic activity in C57/BL6 mouse BMMC cells assessed as inhibition of RANKL-induced osteoclast differentiation at 0.01 uM incubated for 5 to 7 days in presence of M-CSF by TRAP staining based microscopic analysis relative to control
- Assay type: functional
- settings: time 5-7 day
assay readout: inhibition at 0.01 µM (%)
Numeric only. Scale: %

# lookup: inhibition at 0.01 µM of CC(C)=CCC[C@](C)(O)[C@H]1CC[C@]2(C)[C@@H]1/C(=N/O)C[C@@H]1[C@@]3(C)Cc4cnc(C)nc4C(C)(C)[C@@H]3CC[C@]12C
0

###

Reported inhibition at 0.01 µM by item:
- Tested on: BMMC
- method summary: Anti-osteoclastogenic activity in C57/BL6 mouse BMMC cells assessed as inhibition of RANKL-induced osteoclast differentiation at 0.01 uM incubated for 5 to 7 days in presence of M-CSF by TRAP staining based microscopic analysis relative to control
- Assay type: functional
- settings: time 5-7 day
Numeric only. Scale: %

Would you please look over these solved cases?
[
  {
    "molecule smiles": "CC(C)=CCC[C@](C)(O)[C@H]1CC[C@]2(C)[C@@H]1[C@H](O)C[C@@H]1[C@@]3(C)Cc4cnc(C)nc4C(C)(C)[C@@H]3CC[C@]12C",
    "unit symbol": "%",
    "recorded value": 34.5
  },
  {
    "molecule smiles": "Cc1ncc2c(n1)C(C)(C)[C@@H]1CC[C@]3(C)[C@H](C[C@@H](O)[C@@H]4[C@@H]([C@@](C)(O)CCCC(C)C)CC[C@]43C)[C@@]1(C)C2",
    "unit symbol": "%",
    "recorded value": 9.2
  },
  {
    "molecule smiles": "CC(C)=CCC[C@](C)(O)[C@H]1CC[C@]2(C)[C@@H]1[C@@H](O)C[C@@H]1[C@@]3(C)Cc4cnc(C)nc4C(C)(C)[C@@H]3CC[C@]12C",
    "unit symbol": "%",
    "recorded value": 0
  },
  {
    "molecule smiles": "CC(C)=CC/C=C(\\C)[C@H]1CC[C@]2(C)[C@@H]1[C@H](O)C[C@@H]1[C@@]3(C)Cc4cnc(C)nc4C(C)(C)[C@@H]3CC[C@]12C",
    "unit symbol": "%",
    "recorded value": 27.4
  },
  {
    "molecule smiles": "CC(C)=CCC[C@](C)(O)[C@H]1CC[C@]2(C)[C@@H]1C(=O)C[C@@H]1[C@@]3(C)Cc4cnc(C)nc4C(C)(C)[C@@H]3CC[C@]12C",
    "unit symbol": "%",
    "recorded value": 8.68
  },
  {
    "molecule smiles": "CC(=O)O[C@@H]1C[C@@H]2[C@@]3(C)Cc4cnc(C)nc4C(C)(C)[C@@H]3CC[C@@]2(C)[C@]2(C)CC[C@H]([C@@](C)(O)CCC=C(C)C)[C@@H]12",
    "unit symbol": "%",
    "recorded value": 6.68
  }
]

# lookup: inhibition at 0.01 µM of C=C(CCC=C(C)C)[C@H]1CC[C@]2(C)[C@@H]1[C@H](O)C[C@@H]1[C@@]3(C)Cc4cnc(C)nc4C(C)(C)[C@@H]3CC[C@]12C
44.4
